Every entry's value here was drawn from the domain aggregation screens of Martell et al. (2025).

Assay: soluble fraction after stress (log2 fold change); higher = more stays soluble; pooled small domains, quantitative proteomics;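 also: 20 min heating vs room temperature control held 20 min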
Details: stress: 75 degC
experimental endpoint: soluble fraction (log2)

HMEAEPRLLDLPPGTRAGRLDKVLAQLLPEHSRSRLQGWIERGGVLVNGKEASVRQVVGPGDQLTVWEEAA = -0.0507
HMSILPGVYRHYKGNHYQVFYLAKHSETLEDMVVYQALYGERGIWVRPASMWNETVDDQGKQVKRFTYI = -3.58
HMITALLPGTVLIREFDGRDYHVTVATDGRFEMDGHKYPSLSAVAKHITGTQWSGPAFFGLN = -1.06
HMYEPPTEDEKRVLSLLATRESIVRSDVDRLLGVSQSTANRILKQMIEKYLISQEGTGKNTKYIK = -0.263
HMWWTPIILRDALFGVQRFEDFQKNLDVSRATLSSRLTRLVDEGLMEKVEYQQHPVRHEYVLTEKGR = -0.234
HMVSKQVTVNGIQYYQYTVQKSEGFYAISTKFGVTQDDIILANPSTKEGLRVGQEILIPIKT = -2.62
HMESRETGLPVVIISDGRILQDNLKRRGLDLSWLDKQLAEHGYPDFRDVFLLTVDEAGGVYFVPRE = 0.438
HMIMHLNQIIRNKRLAAGLTQEALAQKVGVTAPAVSKWEKGISYPDITLLPILARNLNTDVNTLLDFSA = -1.29

Parameters: items (list). Returns: soluble fraction (log2) for each item.
1. HMIKRITDEQHPVDVDRLLVVTFTNAAASEMRERIGDAIEAALEKDPYNQHLQRQLTLVHNAQITTIDS
2. HMESVDRIYERVRRYADDVGTAKIPMKELDDDGPLGTAVSRIRERRKRGELTEEWEARFETLPGWTWAA

Marked response:
1. 0.171
2. 0.045

Parameters: items (list). Returns: soluble fraction (log2) for each item.
1. HMSERVVVPDLTGKDLVAAQSELREISLAGREEGPGDKVRRQFPVAGVKVPKDTVVILYTED
2. HMTVIARQIPPLVPRMLDGLEAFIKLDVPFEEKERLARVQMLRSSLDRDNLDTAEIFRAVLEAYNIELQY
3. HMKPDMAVIVGSRTLTFATTTDRQILVLRTDGTMVNRLSMKAGETRTITLPAGVYIVNGKKIIV
4. HMGRMTRKDRALATDLYGRIVGNVDDFHEGRIDYETFSERQRGLWTTLDAAGPEVKRAVLADIRERL
5. HMPIRMLQVQKTNTGYLNVRDTPSVSGALIGKVFPGDMLSSTEERDGWFLVAVPQGGTGWVSGDYVKTTS
6. HMAEVDREEALRIALAHAAVARRDVRNLKIERGEENGVPVYKVEFETAFGDFDVAVSRRSGDVVDAD

Marked response:
1: 0.0278; 2: 0.352; 3: -2.35; 4: -0.563; 5: -0.191; 6: -0.0382

Exam item: Record request: soluble fraction (log2) value, item `HMEKTLAERVNDILAEIKMTKQELAMQLNISRSAVSQYLNGKYSSNPEAIEARLRDFVSSYDRG`
Marked response: -0.292

----------
Record form. Attribute: soluble fraction (log2). Fill in for each entry.
Assay: soluble fraction after stress (log2 fold change); higher = more stays soluble; pooled small domains, quantitative proteomics
Settings: stress: 75 degC
One number for each entry.

Recorded results for 3 sequences are shown here.
HMGPDTVDRTRRFKWVDNEVVVNFGKNAGRTLRDLAENDPGFLRWIVRSDFSDEVRTIANDALMGKFPTRK = -0.283
HMQTTITITNTVTGQKAQFPPPFNPMSLSKIGVDETFEKEVFVDGVDTFGYGLDGYLTFYELKDFLRSYQ = -2.61
HMDENDPYEILEIDRLASDDQVKAKYRALIRENHPDVLMAKGVPQEFIDLANRKMAVINAAYDRIEKEREF = 0.122

Exam item: Record request: soluble fraction (log2) value, item `HMSPFAHHLHELRMRHGIRQNELAELIGYDQTYISALEVGLKGPPTPEFVDKLVEGLALSRTEEAALRSAA`
Marked response: -0.483

----------
Assay: soluble fraction after stress (log2 fold change); higher = more stays soluble; pooled small domains, quantitative proteomics
Conditions: stress: 75 degC
Record form. Attribute: soluble fraction (log2). Fill in for each entry.
One number for each entry.

Recorded results for 5 sequences are shown here.
HMIVVTSPQVTDERIAEIVAFIEKHGVQAHVSRGTDRTVIGIIGKADPVLAEHLRSMQGVENVIKIS = -0.167
HMDPRTSSLTPQERKVLELVGGGLTNRQIAAEMFLAEKTVKNYVSSLLAKLGFERRTQAAVFIASPAF = -0.54
HMDLQNIQNQLNTEFAKSDTRIIFWFDDKGEYEDEVSELQLGDVKLHILDGLNWFYSKYLLNEA = -0.141
HMSEPFDMAVPLTSGGRRLDQVLAELLPQHSRNRLQGWIRDGLLTLDGVTVTEPKRKLAGGEQLALLLP = -0.169
HMEAEGLDFAPMPGEIGKKLWQEVSKEAWAGWLKHQTMLVNENRLSFVDPAARKYLTEQTEAYFFG = 0.131

Parameters: items (list). Returns: soluble fraction (log2) for each item.
1. HMDTITMAGERYAVSDLEKVSGDIFEKAFGFEIDPKTADAKDVLPTMPKSDVDLFKKLSGIKP
2. HMAEQDILQSVYPHIGGQDNVSRTISRNGTLYLMLKDASAVDLKAVKQVPGIADAALERGRLTLQLEE

Marked response:
[0.401, -0.203]

Exam item: Record request: soluble fraction (log2) value, item `HMKDYQGNILIQSEGDRIDKFLFKYFNSFSRTKIKNHIINGNILVNDKNTIPAYVLKINDKISYDLSTSVK`
Marked response: -1.9

----------
Assay: soluble fraction after stress (log2 fold change); higher = more stays soluble; pooled small domains, quantitative proteomics
Settings: stress: 75 degC
Label met for high-side soluble fraction (log2) (at or above -0.4) and not met for low-side soluble fraction (log2) (below it).

HMSLPQSKDAVITILRTLPQLDTRAPEVYKLLGPHALDIILEDPEQVAKKINHVGVATAKLWQQALLGFK = not met
HMIAVLKQGVSKQQVENLITWFRSRGLDVHISEGKFQTIIGLIGDTSKVDIDLLNGLEIIESVKRI = met
HMINAQETEIYRFLIEKANRLYSMVLGLKREELMTATRQFEEEVKHSSIHHLPKIYQAFSSYLELLERG = not met

Exam item: Hi, just wondering whether `HMHGERVVTAGQTVRVVFTSNGLQVSSEGKALAAGAVGDDIQVRAASGKVIRGTVTGPGVVQV` shows soluble fraction (log2) of -0.4 or higher.
Marked response: met

Exam item: Hi, just wondering whether `HMRKPISQEIVDEVLKLAKNNPDWGYDRIAGVMKYLKYDVSATTVRHILDDNGIVPDPERRLR` shows soluble fraction (log2) of -0.4 or higher.
Marked response: met

Exam item: Hi, just wondering whether `HMPNQLLELVEMEIRDLLNEYEFPGDDTPIIQGSALKALEDPMGPWGDKIMDLMDAVDSYIPDPE` shows soluble fraction (log2) of -0.4 or higher.
Marked response: not met

Exam item: Hi, just wondering whether `HMQNLETVEEIKELALNYLDKYQPSKKSLQVYLFRKAIDAQSNSVEKSEILKKIETVLTDLEEQGILNDAL` shows soluble fraction (log2) of -0.4 or higher.
Marked response: met

----------
Assay: soluble fraction after stress (log2 fold change); higher = more stays soluble; pooled small domains, quantitative proteomics
Details: stress: 75 degC
Record form. Attribute: soluble fraction (log2). Fill in for each entry.
One number for each entry.

Recorded results for 5 sequences are shown here.
HMDSESGAIIRRAVAQLAPKFRSTIVLRLIEGYSTEETAQILQLPVGTVLSRLARAKVQLMNLLTPYKEL = -0.0893
HMIDQSVVVQYLSKLTNTPYLKTREITMGEPYMQFERGEIKFQEYVEDIRALLPGGDRIDADRLRDIWMNS = -1.1
HMLTALTDREEEILVLLAHNLSNKEIAKRLNLSVNTVRNHTSHIYEKLNVTSRRKAITLAQSLHLLPP = -1.48
HMQIKEVDYGTFISMTEDGEIGRVEIQQQENTILFTDEDETAVYKTAMVEDDQLTQRLYDAGISFYGEE = 0.0917
HMKGMIKVASMSLGADLGLYSRHLKYLGIVHRVVEESGGQSVYIQKLNDLHTAKESLELYLKNELKI = -2.56

Parameters: items (list). Returns: soluble fraction (log2) for each item.
1. HMLSKGDRVSWDTPQGRTQGEVVEKKTKDFEHDGQKFTASDDDPAFIVKSEKSGAEAAHKGSALNK
2. HMIYQNVINLLKNRLNSSIYNIGDLLPSEKELAEHYDVSRNTLRKALKTLEEEGMIERRHGSGTYLRNK
3. HMSVKYLQIYHAIREKILSNEYAINQQLPDEITLTKEFNSSRMTVKKALDLLVSEGLIFRKRGQGTFVLSR
4. HMAPMYGEFENVRLTDAQLDKLNARFPPEQVQREIEALSGYMRSKGKRYADHYATLLNWLRRDFPP

Marked response:
1. -0.000228
2. -1.67
3. -3.67
4. -0.238

Parameters: items (list). Returns: soluble fraction (log2) for each item.
1. HMSLTPSQDANRSAILDAARDLFARYGFKKTTMEDIAMALRKGKSSLYYYFKNKEDIFQAVIDS
2. HMTNPPITTEARNLVVEQLKELNALHPEKARELADSYKKEFNVPKVIGHITEARHGEFLALAISKIDES
3. HMENEFEAYSDGSSIQLNDPSKATYVVFDRQGRLLHLFQNHSLSSLSIERKNQILIITRETADGVSVKKIV

Marked response:
1: -1.25; 2: -0.241; 3: -0.53
